TEST_DETAILS: Dissociation constant, pKa of the compound
Format: physicochemical
PROPERTY_NAME: pKa
Answers are plain numbers.

Enquiry: Query pKa for "CC(C)CCOc1ccc2c(c1)[C@H]1OCCC[C@H]1[C@@H](C1CCOCC1)N2"
Return: 3.8

###

TARGET: Sigma non-opioid intracellular receptor 1 (Homo sapiens)
TEST_DETAILS: Displacement of [3H]-(+)-pentazocine from human sigma1 receptor transfected in HEK293 cells after 120 mins by liquid scintillation counting analysis
Answer each item with its documented pKi.
Give bare numbers, as −log10 of the molar value.

Batch request: pKi per item, same order as input.
1. CC(C)CCOc1ccc2c(c1)[C@H]1OCCC[C@H]1[C@@H](C1CCN(Cc3ccccc3)CC1)N2 (racemic)
2. CC(C)CCOc1ccc2c(c1)[C@H]1OCC[C@H]1[C@@H](C1CCCCC1)N2 (racemic)
3. CC(C)CCOc1ccc2c(c1)[C@H]1OCCC[C@H]1[C@@H](C1CCCCC1)N2 (racemic)
4. CC(C)CCOc1ccc2c(c1)[C@H]1OCCC[C@H]1[C@@H](C1CCCC1)N2 (racemic)
5. Clc1ccc(Oc2ccc3c(c2)[C@H]2OCC[C@H]2[C@@H](C2CCCCC2)N3)cc1 (racemic)
6. CCCCOc1ccc2c(c1)[C@H]1OCCC[C@H]1[C@@H](C1CCCCC1)N2 (racemic)
7. CC(C)CCOc1ccc2c(c1)[C@H]1OCCC[C@H]1[C@@H](C1CCNCC1)N2 (racemic)
8. CCCCCc1ccc2c(c1)[C@H]1OCCC[C@H]1[C@@H](C1CCOCC1)N2 (racemic)

Return:
[7.82, 6.97, 7.28, 6.91, 6.52, 6.75, 6.27, 7.17]

###

TARGET: Sigma non-opioid intracellular receptor 1 (Homo sapiens, UniProt Q99720)
Sequence (Q99720 whole entry): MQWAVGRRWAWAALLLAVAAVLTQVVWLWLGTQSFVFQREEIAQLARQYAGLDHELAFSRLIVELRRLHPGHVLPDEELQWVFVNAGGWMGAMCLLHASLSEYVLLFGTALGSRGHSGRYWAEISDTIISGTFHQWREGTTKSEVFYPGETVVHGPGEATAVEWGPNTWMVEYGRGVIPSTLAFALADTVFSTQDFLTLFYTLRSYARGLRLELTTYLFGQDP
TEST_DETAILS: Displacement of [3H]-(+)-pentazocine from human sigma1 receptor transfected in HEK293 cells after 120 mins by liquid scintillation counting analysis
Answer each item with its documented pKi.
Numbers only, as −log10 of the molar value.

compound="CCCCCc1ccc2c(c1)[C@H]1OCCC[C@H]1[C@@H](C(CC)CC)N2 (racemic)" observed=6.39

We now examine a further compound.
Enquiry: Query pKi for "CC(C)CCOc1ccc2c(c1)[C@H]1OCCC[C@H]1[C@@H](C1CCCCC1)N2"
Return: 7.85

###

Answer each item with its documented pKi.
TARGET: Sigma non-opioid intracellular receptor 1 (Homo sapiens, UniProt Q99720)
TEST_DETAILS: Displacement of [3H]-(+)-pentazocine from human sigma1 receptor transfected in HEK293 cells after 120 mins by liquid scintillation counting analysis
pKi: −log10 of the molar value.

See these solved cases before continuing.
compound="CCCCc1ccc2c(c1)[C@H]1OCCC[C@H]1[C@@H](C1CCCCC1)N2 (racemic)" property_name=pKi observed="< 6.00"
compound=CCCCCc1ccc2c(c1)[C@@H]1OCCC[C@@H]1[C@H](C1CCCCC1)N2 property_name=pKi observed="< 6.00"
compound="Clc1cccc(Oc2ccc3c(c2)[C@H]2OCCC[C@H]2[C@H](C2CCCCC2)N3)c1 (racemic)" property_name=pKi observed="< 6.00"
compound="CCCNS(=O)(=O)c1ccc2c(c1)[C@H]1OCCC[C@H]1[C@@H](C1CCCCC1)N2 (racemic)" property_name=pKi observed="< 6.00"
compound="O=C(Nc1ccc2c(c1)[C@H]1OCCC[C@H]1[C@@H](C1CCCCC1)N2)c1ccccc1 (racemic)" property_name=pKi observed="< 6.00"

We now examine a further compound.
Enquiry: Query pKi for c1ccc2c(c1)N[C@H](C1CCCCC1)[C@@H]1CCCO[C@H]21 (racemic)
Return: < 6.00
